Hey, just so you know, these numbers are from patent US10023570B2.

target: Kif5b-RET fusion protein in HEK-293 cells (Homo sapiens, UniProt P07949); assay: cell-based; settings: HEK-293 cells expressing Kif5b-RET; read-out: KIF5B-RET pTYR1062 Cell IC50
Sequence (P07949 29-1114 limits assumed): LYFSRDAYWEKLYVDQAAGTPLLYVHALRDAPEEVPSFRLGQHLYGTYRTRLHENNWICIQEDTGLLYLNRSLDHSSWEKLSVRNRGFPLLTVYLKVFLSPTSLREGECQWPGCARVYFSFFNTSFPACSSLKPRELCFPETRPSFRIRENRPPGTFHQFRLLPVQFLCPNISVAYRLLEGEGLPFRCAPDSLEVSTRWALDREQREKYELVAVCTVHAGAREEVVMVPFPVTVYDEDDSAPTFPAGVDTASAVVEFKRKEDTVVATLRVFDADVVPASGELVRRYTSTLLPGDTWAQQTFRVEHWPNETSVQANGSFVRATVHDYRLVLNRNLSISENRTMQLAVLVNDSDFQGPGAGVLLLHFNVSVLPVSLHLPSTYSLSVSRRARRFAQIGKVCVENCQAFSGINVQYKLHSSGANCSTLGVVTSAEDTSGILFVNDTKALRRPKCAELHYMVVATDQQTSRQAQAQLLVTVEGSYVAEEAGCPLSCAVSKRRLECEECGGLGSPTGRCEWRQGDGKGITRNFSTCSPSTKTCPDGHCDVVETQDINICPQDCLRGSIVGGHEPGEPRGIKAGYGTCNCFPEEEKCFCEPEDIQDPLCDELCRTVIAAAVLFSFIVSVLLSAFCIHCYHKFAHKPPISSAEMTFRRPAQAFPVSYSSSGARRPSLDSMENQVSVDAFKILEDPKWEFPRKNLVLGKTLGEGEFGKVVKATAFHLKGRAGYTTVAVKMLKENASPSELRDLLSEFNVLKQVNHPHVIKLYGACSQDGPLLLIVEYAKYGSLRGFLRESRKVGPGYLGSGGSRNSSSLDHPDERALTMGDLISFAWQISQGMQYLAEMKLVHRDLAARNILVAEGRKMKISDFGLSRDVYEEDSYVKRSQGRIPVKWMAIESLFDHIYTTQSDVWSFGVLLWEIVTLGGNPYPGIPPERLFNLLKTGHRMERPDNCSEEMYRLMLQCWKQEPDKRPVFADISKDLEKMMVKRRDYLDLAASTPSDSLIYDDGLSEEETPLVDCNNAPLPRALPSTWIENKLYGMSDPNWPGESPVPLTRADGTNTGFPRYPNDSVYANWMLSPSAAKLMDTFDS
Parameter measured: IC50 (nM)
Record the value in nM, omitting the unit from your answer.

Q. Value lookup for IC50; key = COc1ccc(CN2CCN(c3ccc(-c4cc(-c5cnn(CCC(=O)N(C)C)c5)cn5ncc(C#N)c45)cn3)CC2)cn1
A. 6.4

Q. Recorded IC50 of COc1ccc(CN2CCN(c3ccc(-c4cc(-c5cnn(C(F)F)c5)cn5ncc(C#N)c45)cn3)CC2)cn1 , please.
A. 16.1

Q. Tell me the measured IC50 of COCCCN1CCN(c2ccc(-c3cc(-c4cnn(C)c4)cn4ncc(C#N)c34)cn2)CC1 , please.
A. 32.5

Q. Would you kindly share the measured IC50 for COc1ccc(CN2CCN(c3ccc(-c4cc(-c5cnn(C[C@H](C)O)c5)cn5ncc(C#N)c45)cn3)CC2)cn1 ?
A. 8

Q. So what's the measured IC50 for this one? CCC1(C(=O)NC(C)C)CCN(c2ccc(-c3cc(-c4cnn(C)c4C)cn4ncc(C#N)c34)cn2)CC1
A. 39.7

Q. Could you share which IC50 value was measured for N#Cc1cnn2cc(-c3cnn(C(F)F)c3)cc(-c3ccc(N4CCN(Cc5ccccn5)CC4)nc3)c12 ?
A. 15.6

* * *

target: human KDR protein in HEK-293 cells (Homo sapiens (Human)); assay: KDR Cell Assay (phospho-KDR in HEK-293 cells expressing inducible KDR); format: cell-based; settings: pKDR Cell HEK 10% FBS IC50, HEK-293 cells expressing inducible KDR, VEGF stimulated, 10% FBS
Sequence (P35968 20-1356): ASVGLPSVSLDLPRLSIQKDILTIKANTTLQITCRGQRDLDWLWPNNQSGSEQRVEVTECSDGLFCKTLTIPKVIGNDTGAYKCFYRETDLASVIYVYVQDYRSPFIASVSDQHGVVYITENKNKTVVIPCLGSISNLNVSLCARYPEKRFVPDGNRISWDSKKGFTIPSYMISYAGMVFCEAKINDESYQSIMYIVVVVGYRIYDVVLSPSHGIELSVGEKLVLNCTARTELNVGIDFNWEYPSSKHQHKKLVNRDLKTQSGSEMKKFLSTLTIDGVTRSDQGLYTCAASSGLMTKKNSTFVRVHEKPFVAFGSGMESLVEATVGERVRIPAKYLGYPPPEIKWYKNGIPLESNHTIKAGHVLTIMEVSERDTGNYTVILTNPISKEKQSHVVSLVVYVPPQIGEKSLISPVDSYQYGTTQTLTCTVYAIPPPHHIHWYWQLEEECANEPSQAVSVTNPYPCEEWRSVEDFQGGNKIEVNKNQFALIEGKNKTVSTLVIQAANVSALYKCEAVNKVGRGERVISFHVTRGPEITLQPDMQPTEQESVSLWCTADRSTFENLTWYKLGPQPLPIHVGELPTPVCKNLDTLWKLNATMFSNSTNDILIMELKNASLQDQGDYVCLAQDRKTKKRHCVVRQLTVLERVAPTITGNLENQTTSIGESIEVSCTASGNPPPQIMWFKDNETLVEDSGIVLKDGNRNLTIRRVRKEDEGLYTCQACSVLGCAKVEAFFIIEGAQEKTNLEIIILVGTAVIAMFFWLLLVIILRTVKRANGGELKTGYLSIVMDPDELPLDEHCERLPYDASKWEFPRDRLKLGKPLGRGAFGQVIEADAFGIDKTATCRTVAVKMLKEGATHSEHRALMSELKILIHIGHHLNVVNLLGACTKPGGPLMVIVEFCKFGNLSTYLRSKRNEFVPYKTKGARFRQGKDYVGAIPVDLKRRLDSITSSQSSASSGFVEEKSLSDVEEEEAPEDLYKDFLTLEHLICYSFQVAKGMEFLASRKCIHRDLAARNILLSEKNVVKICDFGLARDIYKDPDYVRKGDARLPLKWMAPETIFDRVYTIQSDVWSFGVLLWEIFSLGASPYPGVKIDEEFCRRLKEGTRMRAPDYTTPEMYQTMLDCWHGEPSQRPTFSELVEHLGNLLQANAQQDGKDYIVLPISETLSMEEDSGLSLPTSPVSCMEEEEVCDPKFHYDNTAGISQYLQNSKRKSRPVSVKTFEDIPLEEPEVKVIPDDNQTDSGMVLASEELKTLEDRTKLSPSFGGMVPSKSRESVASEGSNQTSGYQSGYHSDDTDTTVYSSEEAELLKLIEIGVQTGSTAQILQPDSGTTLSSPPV
pIC50: −log10 of the molar value.
Please use T whenever pIC50 is not below 6, and F whenever it is.

Q. Threshold query (pIC50 >= 6) on Cn1cc(-c2cc(-c3ccc(N4CCN(C(=O)c5ccccc5)CC4)nc3)c3c(C#N)cnn3c2)cn1
A. T

Q. Evaluate Cn1cc(-c2cc(-c3ccc(N4CCN(C(=O)Cc5ccccn5)CC4)nc3)c3c(C#N)cnn3c2)cn1 : pIC50 at minimum 6?
A. T

Q. Item Cn1cc(-c2cc(-c3ccc(N4CCN(C(=O)NCc5ccccc5)CC4)nc3)c3c(C#N)cnn3c2)cn1 with pIC50 of 6 or above?
A. T

Q. Is the recorded value of pIC50 equal to or greater than 6 for this molecule? CC(C)C(=O)N1CCC2(CCN(c3ccc(-c4cc(-c5cnn(C)c5)cn5ncc(C#N)c45)cn3)CC2)C1
A. F

Q. hey, is pIC50 for this one >= 6? Cn1cc(-c2cc(-c3ccc(N4CCC5(CCN(C(=O)OC(C)(C)C)C5)CC4)nc3)c3c(C#N)cnn3c2)cn1
A. T

Q. Say whether Cn1cc(-c2cc(-c3ccc(N4CCN(C(=O)[C@@H](O)c5ccccc5)CC4)nc3)c3c(C#N)cnn3c2)cn1 shows pIC50 of 6 or more.
A. T

Q. In plain terms: is recorded pIC50 at least 6 for CN(C)C(C(=O)N1CCN(c2ccc(-c3cc(-c4cnn(C)c4)cn4ncc(C#N)c34)cn2)CC1)c1ccc(F)cc1 (centres unmarked) ?
A. F

* * *

Assign IC50 to each entry below.
target: Kif5b-RET fusion protein in HEK-293 cells (Homo sapiens, UniProt P07949); assay: cell-based
// return numeric value only (unit: nM, not printed)

Q. Returns the measured IC50 for the input molecule. Input: COc1ccc(CN2CCN(c3ccc(-c4cc(-c5cnn(C)c5)cn5ncc(C#N)c45)cn3)CC2)c(C)n1 [Example 678]
A. 16.3

Q. Any idea what IC50 was measured for Cc1nn(C)c(C)c1-c1cc(-c2ccc(N3CCN(Cc4ccccc4)CC3)nc2)c2c(C#N)cnn2c1 [Example 613] ?
A. 361

Q. Returns the measured IC50 for the input molecule. Input: CNC(=O)N1CCN(c2ccc(-c3cc(-c4cnn(C)c4)cn4ncc(C#N)c34)cn2)CC1 [Example 387]
A. 53.2

Q. # IC50 lookup, item Cc1nn(C(C)(C)C)cc1-c1cc(-c2ccc(N3CCN(Cc4ccccc4)CC3)nc2)c2c(C#N)cnn2c1 [Example 616]
A. 85.2

Q. Need IC50 of CCc1nn(CC)cc1-c1cc(-c2ccc(N3CCN(Cc4ccccc4)CC3)nc2)c2c(C#N)cnn2c1 [Example 615] , thanks.
A. 117

Q. What measured IC50 goes with CCn1cc(-c2cc(-c3ccc(N4CCN(Cc5ccccc5)CC4)nc3)c3c(C#N)cnn3c2)c(C)n1 [Example 609] ?
A. 31.5

Q. Would you kindly share the measured IC50 for Cc1cccc(CN2CCN(c3ccc(-c4cc(-c5cnn(C)c5)cn5ncc(C#N)c45)cn3)CC2)n1 [Example 433] ?
A. 6

* * *

molecular target: Kif5b-RET fusion protein in HEK-293 cells (Homo sapiens); experiment: cell-based; conditions: HEK-293 cells expressing Kif5b-RET; read-out: KIF5B-RET pTYR1062 Cell IC50
Kindly state IC50 for each of the entries shown.
Express the result in nM but write the number alone.

Q. // lookup IC50 for COc1ccc(CN2CCN(c3ccc(-c4cc(-c5cnn(CC(=O)N(C)C)c5)cn5ncc(C#N)c45)cn3)CC2)cn1
A. 12.6

Q. Reported IC50, compound C[C@H](CO)Cn1cc(-c2cc(-c3ccc(N4CCN(Cc5ccccc5)CC4)nc3)c3c(C#N)cnn3c2)cn1 : ____
A. 12.4

Q. Which IC50 reading was recorded for the compound Cn1cc(-c2cc(-c3ccc(N4CCN(CCOC(C)(C)C)CC4)nc3)c3c(C#N)cnn3c2)cn1 ?
A. 5.6

Q. Given the entry COC(CN1CCN(c2ccc(-c3cc(-c4cnn(C)c4)cn4ncc(C#N)c34)cn2)CC1)C(C)C (centres unmarked) , report its measured IC50.
A. 29.1

Q. Given the entry CCC1(C(=O)NC(C)C)CCN(c2ccc(-c3cc(-c4cn(C)nc4C)cn4ncc(C#N)c34)cn2)CC1 , report its measured IC50.
A. 16.5

Q. # query: IC50 of entry Cc1cnn2cc(-c3cnn(C)c3)cc(-c3ccc(N4CCN(Cc5ccccc5)CC4)nc3)c12
A. 69.4

Q. Which IC50 is reported for this compound? CCc1cnn2cc(-c3cnn(C)c3)cc(-c3ccc(N4CCNCC4)nc3)c12
A. 215

Q. Need IC50, item CO[C@@H](C)CN1CCN(c2ccc(-c3cc(-c4cnn(C)c4)cn4ncc(C#N)c34)cn2)CC1
A. 25.4

Q. I would be grateful if you could share the reported IC50 for COc1ccc(CN2CCN(c3ccc(-c4cc(-c5cnn(CC(C)CO)c5)cn5ncc(C#N)c45)cn3)CC2)cn1 (stereo in doubt) [Example 707] .
A. 6.5

Q. // lookup IC50 for CC(C)OCCN1CCN(c2ccc(-c3cc(-c4cnn(C)c4)cn4ncc(C#N)c34)cn2)CC1
A. 3.6

Q. Bench note: what IC50 did Cn1cc(-c2cc(-c3ccc(N4CCN(CCOC(F)(F)F)CC4)nc3)c3c(C#N)cnn3c2)cn1 show?
A. 18.6

Q. IC50 for COc1ccc(CN2CCN(c3ccc(-c4cc(-c5cnn(CC(C)CO)c5)cn5ncc(C#N)c45)cn3)CC2)cn1 (stereo in doubt) [Example 708] ?
A. 7

Q. // returns reported IC50 for input N#Cc1cnn2cc(-c3cn[nH]c3)cc(-c3ccc(N4CCN(Cc5ccccc5)CC4)nc3)c12
A. 4.1

Q. Look up IC50 for this compound: CCc1nn(C)cc1-c1cc(-c2ccc(N3CCN(Cc4ccccc4)CC3)nc2)c2c(C#N)cnn2c1
A. 109

Q. Name the recorded IC50 for CC(C)Cn1cc(-c2cc(-c3ccc(N4CCN(Cc5ccccc5)CC4)nc3)c3c(C#N)cnn3c2)cn1 .
A. 5.2

Q. Recorded IC50 for COc1cccc(CN2CCN(c3ccc(-c4cc(-c5cn[nH]c5)cn5ncc(C#N)c45)cn3)CC2)n1 , please?
A. 24.3

Q. # query: IC50 of entry Cn1cc(-c2cc(-c3ccc(N4CCC(C(=O)NOCCO)CC4)nc3)c3c(C#N)cnn3c2)cn1
A. 146

Q. Value lookup for IC50; key = CC(C)NS(=O)(=O)C1CCN(c2ccc(-c3cc(-c4cnn(C)c4)cn4ncc(C#N)c34)cn2)CC1
A. 2.8

Q. Given COc1ccc(CN2CCN(c3ccc(-c4cc(-c5cn[nH]c5)cn5ncc(C#N)c45)cn3)CC2)cn1 , state its recorded IC50.
A. 12.4

Q. Look up IC50 for this compound: CC(C)CC(=O)N1CCN(c2ccc(-c3cc(-c4cnn(C)c4)cn4ncc(Cl)c34)cn2)CC1
A. 45.7

Q. Which IC50 value is on record for COc1ncc(F)cc1CN1CCN(c2ccc(-c3cc(-c4cnn(C)c4)cn4ncc(C#N)c34)cn2)CC1 ?
A. 19.5

Q. What value of measured IC50 is listed for COc1ccc(CN2CCN(c3ccc(-c4cc(-c5cnn(CC(C)(C)O)c5)cn5ncc(C#N)c45)cn3)CC2)cn1 ?
A. 5.6

Q. Quick one: IC50 of Cn1cc(-c2cc(-c3ccc(N4CCN(Cc5ccc(OCC(F)(F)F)nc5)CC4)nc3)c3c(C#N)cnn3c2)cn1 ?
A. 74.7

Q. Record request: IC50 value, item CC(C)S(=O)(=O)CCN1CCN(c2ccc(-c3cc(-c4cnn(C)c4)cn4ncc(C#N)c34)cn2)CC1
A. 4.6

Q. Need IC50 of COc1cc(C)c(CN2CCN(c3ccc(-c4cc(-c5cnn(C)c5)cn5ncc(C#N)c45)cn3)CC2)cn1 , thanks.
A. 17.3

Q. I'd like to know its IC50. The compound in question is COc1ncccc1CN1CCN(c2ccc(-c3cc(-c4cnn(C)c4)cn4ncc(C#N)c34)cn2)CC1
A. 12.1

Q. Given the compound Cc1cnn2cc(-c3cnn(C)c3)cc(-c3ccc(N4CCN(Cc5ccccn5)CC4)nc3)c12 , what is its reported IC50?
A. 164

Q. Return reported IC50; argument: COC(C)(C)CN1CCN(c2ccc(-c3cc(-c4cnn(C)c4)cn4ncc(C#N)c34)cn2)CC1
A. 41.5

Q. Param item = Cn1cc(-c2cc(-c3ccc(N4CCC(O)(C(F)(F)F)CC4)nc3)c3c(C#N)cnn3c2)cn1 [Example 510, 2,2,2-trifluoroacetate] ; retrieve measured IC50.
A. 9.6
